# ASSAYED_TARGET: Nuclear receptor subfamily 1 group I member 2 (Homo sapiens)
# ASSAY_PROCEDURE: ATG_PXR_TRANS: Attagene TRANS-FACTORIAL HepG2 Assay for human Pregnane X Receptor (PXR) (AID 2283008)
Inconclusive results are not listed. Active and inactive are the calls of the source. Rule for the calls: active = hit-call score of the fitted dose curve at least 0.9, where 1 is the maximum; inconclusive = response in the unintended direction; inactive = score below 0.9.
Choose the fitting class; nothing outside t = active, f = inactive is accepted.

These solved cases illustrate the format of a correct answer.
{"COMPOUND": "COc1ccc(OC(F)(F)F)cc1CN[C@H]1CCCN[C@H]1c1ccccc1", "ASSAYED_TARGET": "Nuclear receptor subfamily 1 group I member 2 (Homo sapiens)", "GROUP": "t"}
{"COMPOUND": "CC(=O)O", "ASSAYED_TARGET": "Nuclear receptor subfamily 1 group I member 2 (Homo sapiens)", "GROUP": "f"}
{"COMPOUND": "C#CC(O)C(CC)CCCC (centres undefined)", "ASSAYED_TARGET": "Nuclear receptor subfamily 1 group I member 2 (Homo sapiens)", "GROUP": "t"}
{"COMPOUND": "Cn1cnc2c1c(=O)[nH]c(=O)n2C", "ASSAYED_TARGET": "Nuclear receptor subfamily 1 group I member 2 (Homo sapiens)", "GROUP": "f"}
{"COMPOUND": "COC(=O)CCC(=O)OC", "ASSAYED_TARGET": "Nuclear receptor subfamily 1 group I member 2 (Homo sapiens)", "GROUP": "f"}

Switching to the query record.
input: Just curious, what result did CC(C)COC(=O)CCCCC(=O)OCC(C)C get here?
output: f

###

# Read-out: Pro-epidermal growth factor (Homo sapiens) (UniProt P01133)
# ASSAY_PROCEDURE: LTEA_HepaRG_EGF: Life Technologies and Expression Analysis (LTEA) Assay for Epidermal growth factor (EGF) using HepaRG (AID 2283489)
# TEST_CONTEXT: mRNA level, 48 h; actives raise or lower the signal
Activity calls are given as the source filed them. Rule for the calls: active = hit-call score of the fitted dose curve at least 0.9, where 1 is the maximum; inactive = score below 0.9.
Choose the fitting class; nothing outside yes (1) = active, no (0) = inactive is accepted.

These solved cases illustrate the format of a correct answer.
{"COMPOUND": "CCN(CC)CCOc1ccc(C(=C(Cl)c2ccccc2)c2ccccc2)cc1", "GROUP": "no (0)"}
{"COMPOUND": "CC(N)=O", "GROUP": "no (0)"}
{"COMPOUND": "O=C(NS(=O)(=O)/C=C/c1cccs1)c1ccc(F)cc1Br", "GROUP": "no (0)"}
{"COMPOUND": "CCCCCCC(C=O)=Cc1ccccc1", "GROUP": "no (0)"}
{"COMPOUND": "C/C=C/c1ccc(OC)cc1", "GROUP": "no (0)"}

input: Just curious, what result did CCCCC(CC)COC(=O)CCCCCCCC(=O)OCC(CC)CCCC (stereo unspecified) get here?
output: no (0)

input: Just curious, what result did O=C1OC(c2ccc(O)cc2)(c2ccc(O)cc2)c2ccccc21 get here?
output: no (0)

input: Just curious, what result did COC(=O)[C@H]1[C@H]2C[C@@H]3c4[nH]c5cc(OC)ccc5c4CCN3C[C@H]2C[C@@H](OC(=O)c2cc(OC)c(OC)c(OC)c2)[C@@H]1OC get here?
output: yes (1)

input: Just curious, what result did CCc1cc(C2=C(C(=O)O)N(c3ccccc3C(F)(F)F)S(=O)(=O)c3ccccc32)cc2c1OCO2 get here?
output: no (0)

input: Just curious, what result did CO[C@@H]1COCC[C@@H]1N[C@@H]1CC[C@@](C(=O)N2CCc3ncc(C(F)(F)F)cc3C2)(C(C)C)C1 get here?
output: no (0)

input: Just curious, what result did NC=O get here?
output: no (0)
